Reference source for all entries: patent US4552888A

assay_summary: pKa by titration
Format: physicochemical
experimental_parameters: read-out: pKa
endpoint_label: pKa

a. CC1(C)OC[C@@H]([C@H]2OC(=O)C(O)=C2OCCN2C(=O)c3ccccc3C2=O)O1
b. O=C1OC(C2COC(Cc3ccccc3)(Cc3ccccc3)O2)C(O)=C1O (centres unmarked)
Task for the reader: decide whether a or b has the larger pKa. Provide the label of your selected option as the answer.
a

P. CCCCCCCCCCCCCCCCOC1=C(O)C(=O)O[C@@H]1[C@@H](O)CO [3-O-n-hexadecyl)-L-ascorbic acid]
Q. CCCCCCCCCCC1OC[C@@H]([C@H]2OC(=O)C(O)=C2O)O1 (stereo partly drawn) [5,6-O-undecylidene-L-ascorbic acid]
Please state the entry with greater pKa among P and Q . The response must carry the label of the picked entry.
P
(P: 11.1, Q: 6.48)

A. CCCCCCCCCCCCCCCCCCOC1=C(O)C(=O)O[C@@H]1[C@@H]1COC(C)(CCl)O1 (some centres unmarked)
B. CC1(C)OC[C@@H]([C@H]2OC(=O)C(O)=C2O)O1
Given the listed items, does A or B have the lesser reported pKa? Refer to your chosen entry by its label in the reply.
B

---

assay_summary: pKa by titration
Type: physicochemical
endpoint_label: titratable group

smiles_entry	titratable group
CC1(C)OC[C@@H]([C@H]2OC(=O)C(OCCCCC#N)=C2OCCCCC#N)O1	No titratable group
CCCCCCCCCCCCCCCOC1=C(OCCCCCCCCCCCCCCC)[C@@H]([C@@H]2COC(C)(C)O2)OC1=O	No titratable groups
Cc1ccccc1COC1=C(OCc2ccccc2C)[C@@H]([C@@H]2COC(C)(C)O2)OC1=O	No titratable group
CC1(C)OC[C@@H]([C@H]2OC(=O)C(OCc3ccc(C#N)cc3)=C2OCc2ccc(C#N)cc2)O1	No titratable groups
CCCCCCCCCCCCCCCCCCOC1=C(OCCCCCCCCCCCCCCCCCC)[C@@H]([C@@H]2COC(C)(C)O2)OC1=O	No titratable group

Look up titratable group for this molecule: CC1(C)OC[C@@H]([C@H]2OC(=O)C(OCc3ccc(F)cc3)=C2OCc2ccc(F)cc2)O1
No titratable group

---

assay_summary: pKa by titration
Type: physicochemical
experimental_parameters: read-out: pKa
endpoint_label: pKa

compound	endpoint_result
CCCCCCCCCCCCCCCCCCOC1=C(O)C(=O)O[C@H]1[C@H](O)CO [3-O-n-octadecyl-D-ascorbic acid]	11

a. CC1(C)OC[C@@H]([C@H]2OC(=O)C(O)=C2OCCCOc2ccccc2)O1
b. CC1(CCl)OC[C@@H]([C@H]2OC(=O)C(O)=C2O)O1 (stereo partly drawn)
Compare a and b and name the one whose reported pKa is smaller. Could you answer with the label of the item you picked?
b
(b: 6.1, a: 10.7)

---

System: angiogenesis factor
assay_summary: Inhibition of angiogenesis factor (3683 Morris hepatoma lysosomal-mitochondrial pellet) induced serpentine vessels in mice
Type: in vivo, mice (SPF/ND4 female)
experimental_parameters: Mus musculus, ip, 24 h, Table 1; dose 300 mg./kg.
endpoint_label: inhibition in vivo at 300 mg/kg (%)
Give just the numeric value; % need not be written.

Look over these answered cases.
compound	readout_unit	inhibition in vivo at 300 mg/kg
CCCCCCCCCCCCCCCOC1=C(O)C(=O)O[C@@H]1[C@@H](O)CO [3-O-n-pentadecyl-L-ascorbic acid]	%	50
O=C1O[C@H]([C@@H](O)CO)C(OCCCOc2ccccc2)=C1O [3-O-(3-phenoxypropyl)-L-ascorbic acid]	%	68

Report inhibition in vivo at 300 mg/kg for O=C1O[C@H]([C@@H](O)CO)C(OCc2cccc(Br)c2)=C1O [3-O-(3-bromobenzyl)-L-ascorbic acid] please.
74

Any idea what inhibition in vivo at 300 mg/kg was measured for O=C1O[C@H]([C@@H](O)CO)C(OCCN2C(=O)c3ccccc3C2=O)=C1O [3-O-(2-phthalimidoethyl)-L-ascorbic acid] ?
55

Recorded inhibition in vivo at 300 mg/kg of O=C1O[C@H]([C@@H](O)CO)C(OCCOCCBr)=C1O [3-O-(2-bromoethoxyethyl)-L-ascorbic acid] , please.
36
